These data points were gathered from the supplement of paper PMC11908140.

B1: library; numbered along this chain (parent)
chain: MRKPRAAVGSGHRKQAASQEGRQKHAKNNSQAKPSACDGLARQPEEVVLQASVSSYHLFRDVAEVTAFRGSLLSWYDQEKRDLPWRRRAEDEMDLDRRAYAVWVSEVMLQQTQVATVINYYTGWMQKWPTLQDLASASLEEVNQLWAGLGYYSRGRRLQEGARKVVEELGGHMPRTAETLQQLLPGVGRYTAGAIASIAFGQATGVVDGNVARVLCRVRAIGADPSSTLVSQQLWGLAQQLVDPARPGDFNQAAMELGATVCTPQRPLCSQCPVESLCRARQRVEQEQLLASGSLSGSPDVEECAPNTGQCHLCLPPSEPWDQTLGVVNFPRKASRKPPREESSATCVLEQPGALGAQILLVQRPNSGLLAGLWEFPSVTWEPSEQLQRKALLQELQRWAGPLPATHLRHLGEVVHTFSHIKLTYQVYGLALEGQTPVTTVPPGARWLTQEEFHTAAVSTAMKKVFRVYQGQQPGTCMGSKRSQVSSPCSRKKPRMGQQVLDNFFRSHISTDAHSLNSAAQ

# Variants of: B1
# ASSAY_NAME: 8OG:A repair function score (normalized; synonymous = 0, nonsense = -1) (normalized log-likelihood score); higher = more repair activity (WT-like);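 also: cells sorted at 72 h after reporter transfection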
# DETAILS: with 8OG:A DNA repair reporter (GFP) in HEK-293 MUTYH KO cells
The threshold is inclusive: 8OG:A repair function score of exactly -0.3 counts as label 1; values below receive label 0.

Q113Y	label 1
G150Q	label 0
Q202N	label 1
L448I	label 1
V261P	label 0
E319T	label 1
E375I	label 0
L241Q	label 0
L313D	label 0
L72V	label 0
T176P	label 0
R364N	label 0
T191N	label 0
L229K	label 1
Q232M	label 0
V166T	label 1
S276E	label 1
C347I	label 1
F250G	label 0
C477V	label 1
L313I	label 1
E92R	label 1
R446L	label 1
S74M	label 1
C347L	label 1
L145G	label 1
C278T	label 0
L501S	label 1
Y56H	label 1
P331C	label 1
M478H	label 1
W75F	label 1
Q111E	label 0
V107S	label 1
V211P	label 0
S487Q	label 1
T324R	label 1
R246K	label 0
G293A	label 1
R87G	label 1
H410Y	label 1
W235S	label 0
F504M	label 1
P247H	label 0
G479V	label 1
K463A	label 1
W85V	label 0
S55G	label 1
S518T	label 1
K390G	label 1
A137H	label 0
P44M	label 1
Q450E	label 1
S136E	label 1
G401R	label 1
V242Q	label 0
Q239M	label 1
R279A	label 1
S318D	label 1
H508I	label 1
P474Q	label 1
E413K	label 1
L145C	label 1
Q252S	label 0
L392T	label 0
A194I	label 1
G293I	label 1
P299L	label 1
R266T	label 1
Q397A	label 0
L83Y	label 0
E92W	label 1
Q386W	label 1
A400K	label 0
A101S	label 1
L277T	label 1
L241T	label 0
P331A	label 1
L257A	label 0
V53G	label 1
